B1: Far upstream element-binding protein 2, residues 142 to 214; numbered along this chain, Q92945 (parent)
chain: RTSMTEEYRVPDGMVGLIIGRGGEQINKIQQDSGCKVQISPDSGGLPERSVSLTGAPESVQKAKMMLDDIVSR

variants of: B1; experiment: abundance fitness (aPCA) (normalised: wild type 0, dead -1); higher = more abundant; growth selection in yeast, the domain comes from the species named; conditions: Homo sapiens
RECORDED_METRIC: abundance fitness
Hey, just send me the number, nothing else.

Before answering, review these 3 worked examples.
>>> obs_value("D69T")
-0.103
>>> obs_value("V37H")
-0.962
>>> obs_value("M66S")
-0.428

Now for the variant whose abundance fitness we want.
Sure, the documented abundance fitness for `E58N` is -0.275
